Test system: E. coli TESEC Mtb DapB
PROTOCOL DESCRIPTION: growth (OD600 after 10 h); higher = more growth (less inhibition)
CONDITION NOTES: arabinose induction (level): Low; compound 0.1 mM; raw OD600 reference: median of DMSO wells 0.227, cell-free background 0.041
Structures can show the parent of a compound that is named as a salt.
Below, each of the molecules is paired with its reported growth value.

A selection of reference data follows.
Lookup result for CCc1ccc(CCOc2ccc(CC3SC(=O)NC3=O)cc2)nc1 (stereo not given) ; measured growth: 0.191

Lookup result for COC(=O)N/N=C/c1c[n+]([O-])c2ccccc2[n+]1[O-] ; measured growth: 0.168

Lookup result for CCC[C@@H]1C[C@@H](C(=O)N[C@@H]([C@H]2O[C@H](SC)[C@H](O)[C@@H](O)[C@H]2O)[C@H](C)Cl)N(C)C1 [Clindamycin hydrochloride] ; measured growth: 0.0766

Lookup result for COc1ccc(CC(C)NCC(O)c2ccc(O)c(NC=O)c2)cc1 (stereo not given) [Formoterol fumarate] ; measured growth: 0.238

New cases:
Lookup result for CN1C(C(=O)Nc2ccccn2)=C(O)c2sccc2S1(=O)=O ; measured growth: 0.18

Lookup result for Cc1c(NC(C)C)c(=O)n(-c2ccccc2)n1C [Isopyrin hydrochloride] ; measured growth: 0.268

Lookup result for COc1ccc(C2CNC(=O)C2)cc1OC1CCCC1 (stereo not given) ; measured growth: 0.217

Lookup result for NC[C@@H]1O[C@H](O[C@H]2[C@@H](O)[C@H](O[C@@H]3[C@@H](O)[C@H](N)C[C@H](N)[C@H]3O[C@H]3O[C@H](CO)[C@@H](O)[C@H](O)[C@H]3N)O[C@@H]2CO)[C@H](N)[C@@H](O)[C@@H]1O [Paromomycin sulfate] ; measured growth: 0.26

Lookup result for CC12CC3CC(C)(C1)CC(N)(C3)C2 [Memantine Hydrochloride] ; measured growth: 0.199
